Just for reference, patent US20230330254A1 is where these values come from.

# tested on: human GLP1R (Homo sapiens, UniProt P43220)
# Sequence (P43220 24-463): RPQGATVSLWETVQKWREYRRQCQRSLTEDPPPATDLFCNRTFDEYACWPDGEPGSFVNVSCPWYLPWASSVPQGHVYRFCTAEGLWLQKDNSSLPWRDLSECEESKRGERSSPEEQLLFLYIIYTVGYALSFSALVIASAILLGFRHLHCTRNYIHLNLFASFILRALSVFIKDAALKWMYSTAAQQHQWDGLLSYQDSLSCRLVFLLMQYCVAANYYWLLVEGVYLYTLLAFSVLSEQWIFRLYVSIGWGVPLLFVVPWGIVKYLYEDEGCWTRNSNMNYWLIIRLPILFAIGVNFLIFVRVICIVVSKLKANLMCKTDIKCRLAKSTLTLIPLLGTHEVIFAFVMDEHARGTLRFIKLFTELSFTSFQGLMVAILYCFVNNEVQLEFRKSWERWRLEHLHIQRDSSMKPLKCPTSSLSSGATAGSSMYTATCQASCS
# measurement notes: Luciferase reporter assay, HEK293/CRE-Luc/hGLP1R cells (Example 11)
# Type: cell-based
# Parameters: engineered to express full-length human GLP1R, cynomolgus GLP1R; expressed in transfected cells; host or cells: HEK293/CRE-Luc
# settings: Table 11; Experiment A
# Source text: To test the activity of GLP1R agonist payloads, GLP1R agonist linker-payloads (LPs), and anti-GLP1R antibody tethered drug conjugates (ATDCs) of the disclosure, a cell-based cAMP responsive luciferase reporter assay was developed. To generate the assay cell line, the firefly luciferase gene was placed under the control of a cAMP response element (CRE) located upstream of a minimal promoter and transfected into HEK293 cells and referred to herein as HEK293/CRE-Luc cells. […]
Where a SMILES comes first, the peptide text is derived from it. [ ]: non-standard residue; d: D form. The star is where a group is joined. Bip(2'-Et,4'-O(CH2)4N3) = CCc1cc(OCCCCN=[N+]=[N-])ccc1-c1ccc(C[C@H](N)C(=O)O)cc1; Bip(2'-Et,4'-O(CH2)4NH2) = CCc1cc(OCCCCN)ccc1-c1ccc(C[C@H](N)C(=O)O)cc1; Malonyl(2,2-Me2,histaminyl) = CC(C)(C(=O)NCCc1cnc[nH]1)C(=O)*; Nva(5-(3,5-Me2Ph)) = Cc1cc(C)cc(CCC[C@H](N)C(=O)O)c1; Ala(1H-tetrazol-5-yl) = N[C@@H](Cc1nnn[nH]1)C(=O)O; αMePhe(2-F) = C[C@](N)(Cc1ccccc1F)C(=O)O; X3 = CC(C)(C(=O)*)c1ccn[nH]1; X2 = CC(C)(C(N)=O)C(=O)*
readout label: EC50 (pM)
The figure you give is taken to be in pM; do not add the unit.

IN: Note EC50 for the compound shown: CCc1cc(OCCCCN)ccc1-c1ccc(C[C@H](NC(=O)[C@H](CC(=O)O)NC(=O)[C@H](CO)NC(=O)[C@@H](NC(=O)[C@](C)(Cc2ccccc2F)NC(=O)[C@@H](NC(=O)CNC(=O)[C@H](Cc2nn[nH]n2)NC(=O)C(C)(C)c2ccn[nH]2)[C@@H](C)O)[C@@H](C)O)C(=O)N[C@@H](CCCc2cc(C)cc(C)c2)C(N)=O)cc1 [P6] (X3-[Ala(1H-tetrazol-5-yl)]GT[αMePhe(2-F)]TSD[Bip(2'-Et,4'-O(CH2)4NH2)][Nva(5-(3,5-Me2Ph))]-NH2)
OUT: 602

IN: Note EC50 for the compound shown: CCc1cc(OCCCCN=[N+]=[N-])ccc1-c1ccc(C[C@H](NC(=O)[C@H](CC(=O)O)NC(=O)[C@H](CO)NC(=O)[C@@H](NC(=O)[C@](C)(Cc2ccccc2F)NC(=O)[C@@H](NC(=O)CNC(=O)[C@H](Cc2nn[nH]n2)NC(=O)C(C)(C)C(=O)NCCc2cnc[nH]2)[C@@H](C)O)[C@@H](C)O)C(=O)N[C@@H](CCCc2cc(C)cc(C)c2)C(N)=O)cc1 [P8] ({Malonyl(2,2-Me2,histaminyl)}-[Ala(1H-tetrazol-5-yl)]GT[αMePhe(2-F)]TSD[Bip(2'-Et,4'-O(CH2)4N3)][Nva(5-(3,5-Me2Ph))]-NH2)
OUT: 5.31

IN: Note EC50 for the compound shown: CCc1cc(OCCCCN)ccc1-c1ccc(C[C@H](NC(=O)[C@H](CC(=O)O)NC(=O)[C@H](CO)NC(=O)[C@@H](NC(=O)[C@](C)(Cc2ccccc2F)NC(=O)[C@@H](NC(=O)CNC(=O)[C@H](Cc2nn[nH]n2)NC(=O)C(C)(C)C(N)=O)[C@@H](C)O)[C@@H](C)O)C(=O)N[C@@H](CCCc2cc(C)cc(C)c2)C(N)=O)cc1 [P4] (X2-[Ala(1H-tetrazol-5-yl)]GT[αMePhe(2-F)]TSD[Bip(2'-Et,4'-O(CH2)4NH2)][Nva(5-(3,5-Me2Ph))]-NH2)
OUT: 83.7

---

# tested on: human GLP1R (Homo sapiens)
# measurement notes: Luciferase reporter assay, HEK293/CRE-Luc/hGLP1R (Example 17)
# Type: cell-based
# Set-up: engineered to express full-length human GLP1R, cynomolgus GLP1R; expressed in transfected cells; host or cells: HEK293/CRE-Luc
# settings: HEK293/CRE-Luc/hGLP1R; payloads and linker-payloads; experiments A-E, M2361 repeated in each; read-out: EC50
Where a SMILES comes first, the peptide text is derived from it. [ ]: non-standard residue; d: D form. The star is where a group is joined. Bip(2'-Et,4'-O(CH2)4NH2) = CCc1cc(OCCCCN)ccc1-c1ccc(C[C@H](N)C(=O)O)cc1; Nva(5-(3,5-Me2Ph)) = Cc1cc(C)cc(CCC[C@H](N)C(=O)O)c1; Ala(1H-tetrazol-5-yl) = N[C@@H](Cc1nnn[nH]1)C(=O)O; αMePhe(2-F) = C[C@](N)(Cc1ccccc1F)C(=O)O; X6 = CC(C)(C(=O)NO)C(=O)*
Can you tell me pEC50 for the items I'm about to list?
pEC50 here is simply -log10 of the concentration when that concentration is written in mol/L.

IN: Note pEC50 for the compound shown: CCc1cc(OCCCCN)ccc1-c1ccc(C[C@H](NC(=O)[C@H](CC(=O)O)NC(=O)[C@H](CO)NC(=O)[C@@H](NC(=O)[C@](C)(Cc2ccccc2F)NC(=O)[C@@H](NC(=O)CNC(=O)[C@H](Cc2nn[nH]n2)NC(=O)C(C)(C)C(=O)NO)[C@@H](C)O)[C@@H](C)O)C(=O)N[C@@H](CCCc2cc(C)cc(C)c2)C(N)=O)cc1 [P5] (X6-[Ala(1H-tetrazol-5-yl)]GT[αMePhe(2-F)]TSD[Bip(2'-Et,4'-O(CH2)4NH2)][Nva(5-(3,5-Me2Ph))]-NH2)
OUT: 9.90

IN: Note pEC50 for the compound shown: CCc1cc(OCCCCN)ccc1-c1ccc(C[C@H](NC(=O)[C@H](CC(=O)O)NC(=O)[C@H](CO)NC(=O)[C@@H](NC(=O)[C@](C)(Cc2ccccc2F)NC(=O)[C@@H](NC(=O)CNC(=O)[C@H](CCC(N)=O)NC(=O)C(C)(C)C(=O)NCCc2cnc[nH]2)[C@@H](C)O)[C@@H](C)O)C(=O)N[C@@H](CCCc2cc(C)cc(C)c2)C(N)=O)cc1
OUT: 9.13

IN: Note pEC50 for the compound shown: CCc1cc(OCCCCN)ccc1-c1ccc(C[C@H](NC(=O)[C@H](CC(=O)O)NC(=O)[C@H](CO)NC(=O)[C@@H](NC(=O)[C@](C)(Cc2ccccc2F)NC(=O)[C@@H](NC(=O)CNC(=O)[C@H](Cc2nn[nH]n2)NC(=O)[C@@H](N)CO)[C@@H](C)O)[C@@H](C)O)C(=O)N[C@@H](CCCc2cc(C)cc(C)c2)C(N)=O)cc1 [P7] (H-S[Ala(1H-tetrazol-5-yl)]GT[αMePhe(2-F)]TSD[Bip(2'-Et,4'-O(CH2)4NH2)][Nva(5-(3,5-Me2Ph))]-NH2)
OUT: 8.72

---

# measurement notes: Plasma stability of payloads and linker-payloads, mouse plasma
# Assay type: in vitro ADME
# settings: mouse, pooled plasma, pH 7.4, Table 5C; read-out: Plasma Stability Mouse T½
readout label: half-life at 2 µM

IN: Note half-life at 2 µM for the molecule shown: CCc1cc(OCCCCn2cc(COCCOCCOCCOCCOCCOCCOCCOCCN)nn2)ccc1-c1ccc(C[C@H](NC(=O)[C@H](CC(=O)O)NC(=O)[C@H](CO)NC(=O)[C@@H](NC(=O)C(C)(Cc2ccccc2F)NC(=O)[C@@H](NC(=O)CNC(=O)[C@H](Cc2nn[nH]n2)NC(=O)C(C)(C)C(=O)NCCc2cnc[nH]2)[C@@H](C)O)[C@@H](C)O)C(=O)N[C@@H](CCCc2cc(C)cc(C)c2)C(N)=O)cc1 (stereo partly shown)
OUT: > 168 h

---

# tested on: human GLP1R (Homo sapiens, UniProt P43220)
# measurement notes: Luciferase reporter assay, HEK293/CRE-Luc/hGLP1R (Example 17)
# Format: cell-based
# Design: engineered to express full-length human GLP1R, cynomolgus GLP1R; expressed in transfected cells; host or cells: HEK293/CRE-Luc
# settings: HEK293/CRE-Luc/hGLP1R; relative to M2361 of the same experiment
Where a SMILES comes first, the peptide text is derived from it. [ ]: non-standard residue; d: D form. Bip(2'-Et,4'-O(CH2)4N3) = CCc1cc(OCCCCN=[N+]=[N-])ccc1-c1ccc(C[C@H](N)C(=O)O)cc1; Bip(2'-Et,4'-O(CH2)4NH2) = CCc1cc(OCCCCN)ccc1-c1ccc(C[C@H](N)C(=O)O)cc1; Nva(5-(3,5-Me2Ph)) = Cc1cc(C)cc(CCC[C@H](N)C(=O)O)c1; Ala(1H-tetrazol-5-yl) = N[C@@H](Cc1nnn[nH]1)C(=O)O; αMePhe(2-F) = C[C@](N)(Cc1ccccc1F)C(=O)O
readout label: Relative Signal:Noise (% M2361) (%)
The figure you give is taken to be in %; do not add the unit.

IN: Note Relative Signal:Noise (% M2361) for the molecule shown: CCc1cc(OCCCCN)ccc1-c1ccc(C[C@H](NC(=O)[C@H](CC(=O)O)NC(=O)[C@H](CO)NC(=O)[C@@H](NC(=O)[C@](C)(Cc2ccccc2F)NC(=O)[C@@H](NC(=O)CNC(=O)[C@H](Cc2nn[nH]n2)NC(=O)[C@H](C)NC(=O)[C@@H](N)Cc2cnc[nH]2)[C@@H](C)O)[C@@H](C)O)C(=O)N[C@@H](CCCc2cc(C)cc(C)c2)C(N)=O)cc1 [P10] (H-HA[Ala(1H-tetrazol-5-yl)]GT[αMePhe(2-F)]TSD[Bip(2'-Et,4'-O(CH2)4NH2)][Nva(5-(3,5-Me2Ph))]-NH2)
OUT: 68.6

IN: Note Relative Signal:Noise (% M2361) for the molecule shown: CCc1cc(OCCCCN=[N+]=[N-])ccc1-c1ccc(C[C@H](NC(=O)[C@H](CC(=O)O)NC(=O)[C@H](CO)NC(=O)[C@@H](NC(=O)[C@](C)(Cc2ccccc2F)NC(=O)[C@@H](NC(=O)CNC(=O)[C@@H](N)Cc2nn[nH]n2)[C@@H](C)O)[C@@H](C)O)C(=O)N[C@@H](CCCc2cc(C)cc(C)c2)C(N)=O)cc1 [M2383] (H-[Ala(1H-tetrazol-5-yl)]GT[αMePhe(2-F)]TSD[Bip(2'-Et,4'-O(CH2)4N3)][Nva(5-(3,5-Me2Ph))]-NH2)
OUT: 89.4
